Where these numbers come from: patent WO2019054460A1

- MEASURED_TARGET: human RAMP2 co-expressed with human CRLR on CHO-K1 cells (hCR2-CHOK1) (human, UniProt O60895 43-175; Q16602 23-461)
- Sequence (O60895 43-175, chain 1 of 2): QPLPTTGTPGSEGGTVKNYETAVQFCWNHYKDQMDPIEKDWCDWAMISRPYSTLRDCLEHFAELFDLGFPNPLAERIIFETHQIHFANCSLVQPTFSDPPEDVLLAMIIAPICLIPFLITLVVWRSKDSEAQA
- Sequence (Q16602 23-461, chain 2 of 2): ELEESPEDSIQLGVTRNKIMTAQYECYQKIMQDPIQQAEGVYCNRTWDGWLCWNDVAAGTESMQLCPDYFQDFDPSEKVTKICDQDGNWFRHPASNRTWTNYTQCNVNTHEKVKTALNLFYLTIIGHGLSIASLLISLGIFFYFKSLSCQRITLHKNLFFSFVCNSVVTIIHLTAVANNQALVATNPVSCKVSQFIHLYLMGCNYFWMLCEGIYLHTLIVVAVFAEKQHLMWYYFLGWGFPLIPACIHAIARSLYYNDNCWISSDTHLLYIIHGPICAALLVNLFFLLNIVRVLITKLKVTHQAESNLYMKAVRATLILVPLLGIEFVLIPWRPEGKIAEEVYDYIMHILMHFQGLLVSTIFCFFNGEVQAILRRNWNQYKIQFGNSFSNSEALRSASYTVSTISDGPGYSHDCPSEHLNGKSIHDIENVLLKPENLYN
- TEST_DETAILS: cell-based or functional assay
MEASURE: IC50 values for cAMP inhibition (nM)
Note: unit nM is implicit; provide only the numeric part.

Examples with their reported IC50 values for cAMP inhibition follow.
binder="h25H4-4F9v6 (antibody, V domains shown) VH: EVQLVQSGAEVKKPGATVKISCKVSGYTFTGYFMNWVQQAPGKGLESMGRNNPYNGDSIYAEKFQGRVTITADTSTDTAYMELSSLRSEDTAVYYCARLMIFDAYYAMDYWGQGTTVTVSS VL: DIQMTQSPSSLSASVGDRVTITCQASQDIRNYLNWYQQKPGKAVKLLIYYTSRLHSGVPSRFSGSGSGTDFTFTISSLQPEDIATYYCQQDSKHPWTFGQGTKLEIK" measure="IC50 values for cAMP inhibition" scale_unit=nM experimental_value=1.35
binder="85H7-2B11 antibody (antibody, V domains shown) VH: EVQLQQSGPELVKPGASVKMSCKASGYSFSGYFMNWVKQSHGKSLEWIGRINPYNGDTFYNQKFKGKATLTVDKSSSTTHMELRSLTSEDSALYYCARLGIYDVYHYVMENWGQGTSVTVSS VL: DIQMTQTTSSLSASLGDRVTISCRASQDIRNYLNWYQQKPDGTVKLLIYYTSRLHSGVPSRFSGSGSGTDYSLTISNLEQEDIATYFCQQDSKNPWTFGGGTKLEIK" measure="IC50 values for cAMP inhibition" scale_unit=nM experimental_value=0.03

Find the measured IC50 values for cAMP inhibition of h25H4-4F9v2 (antibody, V domains shown) VH: EVQLVQSGAEVKKPGATVKISCKASGYSFTGYFMNWVKQAPGKGLESIGRNNPYNGDSIYNQKFKGRATLTVDTSTDTAYMELSSLRSEDTAVYYCARLMIFDAYYAMDYWGQGTTVTVSS VL: DIQMTQSTSSLSASLGDRVTITCRASQDIRNYLNWYQQKPGKTVKLLIYYTSRLHSGVPSRFSGSGSGTDYTLTISSLQQEDIATYFCQQDSKHPWTFGQGTKLEIK and report it.
0.14
